# Assay details: LC/MS measurement of plasma nicotinamide and metabolites in NEAT trial participants
# Condition info: human, in vivo, 1500 mg BID, Mean plasma methyl-nicotinamide in 6 of 7 treated participants without measurable plasma nicotinamide, 12 months

Molecule	concentration at 12 months [µM]
C[n+]1cccc(C(N)=O)c1 [methyl-nicotinamide, 1-methyl-nicotinamide]	12.7

----------
# Assay details: LC/MS measurement of plasma nicotinamide and metabolites in NEAT trial participants
# Condition info: human, plasma, oral, 1500 mg, Mean plasma nicotinamide, drug elevated subgroup, treated, plasma nicotinamide > […], 12 months
Experimental readout: concentration at 12 months (µM)

Compound	Experimental readout	Readout number
NC(=O)c1cccnc1 [Nicotinamide]	concentration at 12 months	86

----------
# Assay details: LC/MS measurement of plasma nicotinamide and metabolites in NEAT trial participants
# Condition info: human, plasma, oral, 1500 mg, Plasma nicotinamide, one participant, treated, sample 27 h after last dose
Experimental readout: concentration at 27 h (nM)

Compound	Readout number
NC(=O)c1cccnc1 [Nicotinamide]	2000

----------
# Assay details: LC/MS measurement of plasma nicotinamide and metabolites in NEAT trial participants
# Condition info: human, plasma, Plasma analyte concentration, this work baseline, baseline before treatment, n = 47, ± S.D.

Compound	concentration at 0 months
NC(=O)c1ccc[n+]([C@@H]2O[C@H](COP(=O)([O-])OP(=O)(O)OC[C@H]3O[C@@H](n4cnc5c(N)ncnc54)[C@H](O)[C@@H]3O)[C@@H](O)[C@H]2O)c1 [NAD^+, Nicotinamide Adenine Dinucleotide]	< 1200 nM

----------
# Assay details: LC/MS measurement of CSF nicotinamide and metabolites in NEAT trial participants
# Condition info: human, in vivo, CSF analyte concentration, this work baseline, baseline before treatment, n = 47

Molecule	concentration at 0 months
C[n+]1cccc(C(N)=O)c1 [methyl-nicotinamide, 1-methyl-nicotinamide]	≤ 100 nM

----------
# Assay details: LC/MS measurement of CSF nicotinamide and metabolites in NEAT trial participants
# Condition info: human, in vivo, 1500 mg, CSF methyl-nicotinamide as percent of plasma methyl-nicotinamide, drug elevated subgroup, 3.4 vs 125 μM

Molecule	Kp at 12 months
C[n+]1cccc(C(N)=O)c1 [methyl-nicotinamide, 1-methyl-nicotinamide]	0.03

----------
# Assay details: LC/MS measurement of plasma nicotinamide and metabolites in NEAT trial participants
# Condition info: human, plasma, po, 1500 mg, Mean plasma nicotinamide, nicotinamide-treated participants, 1500 mg PO BID, 12 months

Compound	Unit descriptor	concentration at 12 months
NC(=O)c1cccnc1 [Nicotinamide]	µM	52

----------
# Assay details: LC/MS measurement of plasma nicotinamide and metabolites in NEAT trial participants
# Condition info: human, plasma, oral, 1500 mg, Mean plasma nicotinamide, drug unelevated subgroup, treated, plasma nicotinamide ≤ […], 12 months

Compound	concentration at 12 months (nM)
NC(=O)c1cccnc1 [Nicotinamide]	700
